# System name: Plasmin (Homo sapiens)
# Construct: Human plasmin is purchased; purchased Boehringer Mannheim, Indianapolis, Indiana
# Sequence (P00747 581-810 limits assumed): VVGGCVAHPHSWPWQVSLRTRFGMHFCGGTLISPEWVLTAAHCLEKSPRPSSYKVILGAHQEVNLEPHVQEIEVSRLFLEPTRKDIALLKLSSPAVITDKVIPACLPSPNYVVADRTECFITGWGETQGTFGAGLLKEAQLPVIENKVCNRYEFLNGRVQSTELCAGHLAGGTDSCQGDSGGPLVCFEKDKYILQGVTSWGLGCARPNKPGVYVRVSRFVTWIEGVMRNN
# Sequence (P00747 97-580 partner limits assumed): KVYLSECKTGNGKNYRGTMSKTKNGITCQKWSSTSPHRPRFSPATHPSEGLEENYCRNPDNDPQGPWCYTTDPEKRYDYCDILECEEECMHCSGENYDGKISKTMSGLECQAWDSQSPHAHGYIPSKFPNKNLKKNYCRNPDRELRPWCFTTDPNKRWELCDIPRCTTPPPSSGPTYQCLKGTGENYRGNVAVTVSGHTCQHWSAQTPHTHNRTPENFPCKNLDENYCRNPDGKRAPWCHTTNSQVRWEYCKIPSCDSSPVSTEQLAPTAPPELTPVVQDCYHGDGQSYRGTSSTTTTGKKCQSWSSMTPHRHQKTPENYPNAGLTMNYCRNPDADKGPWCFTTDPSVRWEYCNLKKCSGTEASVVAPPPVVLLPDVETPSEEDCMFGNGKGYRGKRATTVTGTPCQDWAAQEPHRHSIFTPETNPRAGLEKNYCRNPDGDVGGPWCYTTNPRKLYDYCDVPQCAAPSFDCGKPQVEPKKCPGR
# Assay: biochemical
# Protocol conditions: read-out: Kass Plasmin (converted)
# From the text: […]
Where a name gives a salt, the structure may show the parent alone.
Recorded Kd for the following compounds

Example entries and their recorded answers appear below.
{"columns": ["Compound", "Measurement kind", "Data value"],
 "data": [
  ["O=C(O)CN[C@H](CC1CCCCC1)C(=O)N1CCC[C@H]1C(=O)NCCCC1CCNCC1", "Kd", "> 1000 µM"],
  ["N=C(N)Nc1ccc(CCNC(=O)[C@@H]2CCCN2C(=O)[C@@H]2NCC[C@@H]3CCCC[C@@H]32)cc1", "Kd", "> 1000 µM"]
]}

Lab note: next compound to report on.
Query: // fetch Plasmin (Homo sapiens) Kd for N=C(N)c1cccc(CNC(=O)[C@@H]2CCCN2C(=O)[C@@H]2NCC[C@@H]3CCCC[C@@H]32)c1 [Example 25, D-1-Piq-Pro-m-NHCH2-C6H4C(=NH)NH2·HCl]
Result: > 1000 µM
